system: DNA gyrase subunit B (Staphylococcus aureus, UniProt P0A0K8)
Sequence (P0A0K8 whole entry): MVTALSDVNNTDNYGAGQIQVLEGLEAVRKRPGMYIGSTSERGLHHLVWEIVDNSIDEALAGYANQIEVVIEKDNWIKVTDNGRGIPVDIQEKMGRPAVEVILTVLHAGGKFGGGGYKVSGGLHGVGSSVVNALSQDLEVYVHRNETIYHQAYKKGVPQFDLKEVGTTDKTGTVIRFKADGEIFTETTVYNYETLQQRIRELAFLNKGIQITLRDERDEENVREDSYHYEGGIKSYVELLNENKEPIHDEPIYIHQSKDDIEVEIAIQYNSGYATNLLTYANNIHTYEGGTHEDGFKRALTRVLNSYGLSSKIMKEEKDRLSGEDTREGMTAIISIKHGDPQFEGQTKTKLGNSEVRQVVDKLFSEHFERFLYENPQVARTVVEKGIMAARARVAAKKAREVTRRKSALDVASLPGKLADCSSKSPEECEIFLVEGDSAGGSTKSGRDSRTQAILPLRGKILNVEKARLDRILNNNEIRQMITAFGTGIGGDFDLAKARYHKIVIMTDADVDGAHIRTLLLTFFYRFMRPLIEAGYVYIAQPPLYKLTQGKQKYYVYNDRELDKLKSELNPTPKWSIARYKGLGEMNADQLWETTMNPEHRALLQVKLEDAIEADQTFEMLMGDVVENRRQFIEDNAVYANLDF
method.summary: Inhibition of Staphylococcus aureus Gyrase B ATPase activity by fluorescence analysis
measured.property: IC50 (nM)
Value expressed in nM; do not type the unit.

1) CCCc1cccc2c(-c3cnc(-c4ccc(C(=O)O)cn4)s3)n[nH]c12; 49

Incoming: Entry `CCCc1cccc2c(-c3cnc(-c4ccc(COP(=O)(O)O)nc4)s3)n[nH]c12` : reported IC50 = ?
Outgoing: 9

Incoming: Next compound up: `CCCc1cccc2c(-c3cnc(-c4ccc(C(=O)OC)nc4)s3)n[nH]c12`
Outgoing: 29

Incoming: Can you handle `CCCc1cccc2c(-c3cnc(-c4ccc(C(=O)O)nc4)s3)n[nH]c12` next?
Outgoing: 10

====

System: Streptococcus pneumoniae
method.summary: Antibacterial activity against Streptococcus pneumoniae for 18 to 24 hrs by broth microdilution method
Format: functional
measured.property: MIC (µg/mL)
Give the value in µg/mL but do not write µg/mL after it.

1) C=CCc1cccc2c(-c3cnc(-c4ccc(C(=O)O)nc4)s3)n[nH]c12; 0.25
2) CCCc1cccc2c(-c3cnc(-c4cnc(C(=O)OC)c(O)c4)s3)n[nH]c12; 1

Incoming: Requested read-out: MIC. Entry: CO[C@@H]1[C@@H](OC(N)=O)[C@@H](O)[C@H](Oc2ccc3c(O)c(NC(=O)c4ccc(O)c(CC=C(C)C)c4)c(=O)oc3c2C)OC1(C)C [NOVOBIOCIN]
Outgoing: 2

Incoming: Now the same for `CCCn1c(=O)ccc2c(-c3cnc(-c4ccc(C(=O)O)nc4)s3)n[nH]c21`
Outgoing: 0.06

Incoming: Please answer likewise for `CCCOc1nccc2c(-c3cnc(-c4ccc(C(=O)O)nc4)s3)n[nH]c12`
Outgoing: 0.06

Incoming: Entry to check: `O=C(O)c1ccc(-c2ncc(-c3n[nH]c4c(CC5CC5)cccc34)s2)cn1`
Outgoing: 0.5

Incoming: // next record `CCCc1cccc2c(-c3cnc(-c4ccc(C(=O)O)cn4)s3)n[nH]c12`
Outgoing: 8

Incoming: Similarly, `CCCc1c(O)ccc2c(-c3cnc(-c4cnc(C(=O)O)cc4C)s3)n[nH]c12` ?
Outgoing: 0.06

Incoming: Try `CCCc1cccc2c(-c3cnc(-c4ccc(CO)nc4)s3)n[nH]c12` next.
Outgoing: 8

Incoming: Another: `CCCc1cccc2c(-c3cnc(-c4cnc(C(=O)O)c(O)c4)s3)n[nH]c12`
Outgoing: 0.5

Incoming: Also `CCCc1cccc2c(-c3cnc(-c4cnc(C(=O)O)c(F)c4)s3)n[nH]c12` ?
Outgoing: 0.25

Incoming: Now give it for `CCCc1cccc2c(-c3cnc(-c4cnc(C(=O)O)c(OC)c4)s3)n[nH]c12` too.
Outgoing: 1

Incoming: Param item: `CCCc1cccc2c(-c3cnc(-c4ccc(CC(=O)O)nc4)s3)n[nH]c12`
Outgoing: 0.5

Incoming: And for `CCCc1c(O)ccc2c(-c3cnc(-c4cnc(C(=O)O)c(O)c4)s3)n[nH]c12` ?
Outgoing: 0.25

Incoming: Okay, and `CCCc1c(O)ccc2c(-c3cnc(-c4ccc(C(=O)O)c(F)c4)s3)n[nH]c12` ?
Outgoing: 0.06

Incoming: Param item: `CCCc1cccc2c(-c3cnc(-c4ccc(C(=O)O)nc4)s3)n[nH]c12`
Outgoing: 0.06

Incoming: Queued: `CCCc1cccc2c(-c3cnc(-c4ccc(COP(=O)(O)O)nc4)s3)n[nH]c12`
Outgoing: 2

Incoming: Consider next the compound `CCCc1cccc2c(-c3cnc(-c4ccnc(C(=O)O)c4)s3)n[nH]c12` in the same way.
Outgoing: 1

Incoming: Would you kindly repeat that for `CCCc1cccc2c(-c3cnc(-c4cnc(C(=O)O)cc4C)s3)n[nH]c12` ?
Outgoing: 0.125

====

system: DNA gyrase subunit B (Staphylococcus aureus)
method.summary: Inhibition of Staphylococcus aureus Gyrase B ATPase activity by fluorescence analysis
log10 IC50 values, listed per item
Give log10 of IC50, with IC50 taken in nM.

Solved cases (3 shown):
1) CCCc1c(O)ccc2c(-c3cnc(-c4cnc(C(=O)O)cc4C)s3)n[nH]c12; 0.90
2) CCCc1cccc2c(-c3cnc(-c4ccc(C(=O)O)c(=O)[nH]4)s3)n[nH]c12; 2.23
3) CCCc1cccc2c(-c3cnc(-c4cnc(C(=O)O)cc4C)s3)n[nH]c12; 1.08

Now for another entry.
Incoming: Fill in the recorded log10 IC50 for this compound, with DNA gyrase subunit B (Staphylococcus aureus) as test system: `O=C(O)c1ccc(-c2ncc(-c3n[nH]c4c(CC5CC5)cccc34)s2)cn1`
Outgoing: 1.11

====

Tested on: Enterococcus faecium
method.summary: Antibacterial activity against Enterococcus faecium for 18 to 20 hrs by broth microdilution method
Format: functional
measured.property: MIC (µg/mL)
Only the number, expressed in µg/mL, is required.

Recorded results for 6 molecules are shown here.
1) CCCOc1nccc2c(-c3cnc(-c4ccc(CO)nc4)s3)n[nH]c12; 1
2) O=C(O)c1ccc(-c2ncc(-c3n[nH]c4c(CC5CC5)cccc34)s2)cn1; 4
3) CCCOc1nccc2c(-c3cnc(-c4ccc(COP(=O)([O-])[O-])nc4)s3)n[nH]c12.[Na+].[Na+]; 8
4) CCCc1cccc2c(-c3cnc(-c4ccc(C(=O)O)nc4)s3)n[nH]c12; 0.06
5) CCCc1c(O)ccc2c(-c3cnc(-c4cnc(C(=O)O)cc4C)s3)n[nH]c12; 0.25
6) CCCc1cccc2c(-c3cnc(-c4ccc(COP(=O)(O)O)nc4)s3)n[nH]c12; 2

Attention now shifts to the item below.
Incoming: Which MIC value is on record for `CCCc1cccc2c(-c3cnc(-c4cnc(C(=O)O)c(O)c4)s3)n[nH]c12` ?
Outgoing: 0.125

====

system: DNA gyrase subunit B (Staphylococcus aureus)
method.summary: Inhibition of Staphylococcus aureus Gyrase B ATPase activity by fluorescence analysis
measured.property: IC50 (nM)
The reply should be a number in nM, with the unit left off.

1) CCCc1cccc2c(-c3cnc(-c4ccnc(C(=O)O)c4)s3)n[nH]c12; 11

Next compound, please.
Incoming: Looking for the measured IC50 of `CCCc1cccc2c(-c3cncs3)n[nH]c12` , can you help?
Outgoing: 6500

====

system: DNA gyrase subunit B (Staphylococcus aureus)
method.summary: Inhibition of Staphylococcus aureus Gyrase B ATPase activity by fluorescence analysis
measured.property: IC50

Worked examples follow.
1. CCCOc1nccc2c(-c3cnc(-c4ccc(COP(=O)([O-])[O-])nc4)s3)n[nH]c12.[Na+].[Na+]; < 8 nM
2. CCCOc1nccc2c(-c3cnc(-c4ccc(CO)nc4)s3)n[nH]c12; < 8 nM

Incoming: Fill in: IC50 of `CCCc1c(O)ccc2c(-c3cnc(-c4ccc(C(=O)O)c(F)c4)s3)n[nH]c12` is ___
Outgoing: 11 nM

Incoming: Moving on to the next compound: `CCCc1cccc2c(-c3cnc(-c4ccc(CC(=O)O)nc4)s3)n[nH]c12`
Outgoing: 25 nM

Incoming: Consider next the compound `CCCOc1nccc2c(-c3cnc(-c4cnc(C(=O)O)cc4C)s3)n[nH]c12` in the same way.
Outgoing: 52 nM

====

Tested on: Staphylococcus aureus
method.summary: Antibacterial activity against methicillin and ciprofloxacin-resistant Staphylococcus aureus 1721 for 18 to 20 hrs by broth microdilution method
Type: functional
Quick list: MIC per entry.

Use the examples below as a reference point.
1. CCCc1c(O)ccc2c(-c3cnc(-c4cnc(C(=O)O)c(O)c4)s3)n[nH]c12; 2 µg/mL
2. CCCOc1nccc2c(-c3cnc(-c4ccc(COP(=O)([O-])[O-])nc4)s3)n[nH]c12.[Na+].[Na+]; > 8 µg/mL

Incoming: Which MIC value belongs to `CCCc1cccc2c(-c3cnc(-c4cnc(C(=O)O)cc4C)s3)n[nH]c12` ?
Outgoing: 0.03 µg/mL

Incoming: Now this one: `CCCc1cccc2c(-c3cnc(-c4ccc(C(=O)O)nc4)s3)n[nH]c12`
Outgoing: 0.06 µg/mL

Incoming: Query `CCCc1cccc2c(-c3cnc(-c4cnc(C(=O)O)c(OC)c4)s3)n[nH]c12` next
Outgoing: > 8 µg/mL

Incoming: For `CCCc1cccc2c(-c3cnc(-c4ccc(C(=O)O)c(=O)[nH]4)s3)n[nH]c12` then?
Outgoing: > 8 µg/mL

Incoming: Next record, please: `CCCc1cccc2c(-c3cnc(-c4ccc(CC(=O)O)nc4)s3)n[nH]c12`
Outgoing: 0.25 µg/mL

Incoming: Request: `CCCOc1nccc2c(-c3cnc(-c4cnc(C(=O)O)cc4C)s3)n[nH]c12`
Outgoing: 8 µg/mL

Incoming: Now give it for `O=C(O)c1ccc(-c2ncc(-c3n[nH]c4c(CC5CC5)cccc34)s2)cn1` too.
Outgoing: 0.1 µg/mL

Incoming: # iterate: `CCCc1cccc2c(-c3cnc(-c4ccc(CO)nc4)s3)n[nH]c12`
Outgoing: 0.06 µg/mL

====

Recorded MIC by entry
System: Enterococcus faecalis
method.summary: Antibacterial activity against Enterococcus faecalis for 18 to 20 hrs by broth microdilution method
Assay type: functional
API: value field is a number in µg/mL; no unit string.

1) CCCc1cccc2c(-c3cnc(-c4ccc(C(=O)O)c(F)c4)s3)n[nH]c12; 0.06
2) CCCc1c(OC)ccc2c(-c3cnc(-c4ccc(C(=O)O)c(F)c4)s3)n[nH]c12; 0.03
3) O=C(O)c1ccc(-c2ncc(-c3n[nH]c4c(CC5CC5)cccc34)s2)cn1; 0.125

Incoming: Bench note: what MIC did `CCCc1cccc2c(-c3cnc(-c4cnc(C(=O)O)c(OC)c4)s3)n[nH]c12` show?
Outgoing: 2
